system: ZEAMA Sileno; test: Seed treatment with safener; post-emergence herbicide application; type: in vivo, maize; conditions: HER dose 32 g a.i./ha, no safener, Final assessment
If the reported HER effect (crop damage, herbicide without safener) equals or exceeds 80%, assign MET. If not, assign NOT MET.

Would you say CCOC(=O)C1C=CC(NC(=O)C2(CF)CC(c3cc(F)cc(F)c3)=NO2)C1 (stereo not drawn) shows HER effect (crop damage, herbicide without safener) at minimum 80%?
MET

Would you say COCCOC(=O)C1C=CC(NC(=O)C2(CCl)CC(c3cc(F)cc(F)c3)=NO2)C1 (stereo not drawn) shows HER effect (crop damage, herbicide without safener) at minimum 80%?
NOT MET

Would you say COC(=O)C1(C)CC(NC(=O)C2(C(C)(F)F)CC(c3cc(F)cc(F)c3)=NO2)CO1 (mixture of isomers) shows HER effect (crop damage, herbicide without safener) at minimum 80%?
MET

Would you say C=CC1(C(=O)NC2COC(C(=O)OCCOC)C2)CC(c2cc(F)cc(F)c2)=NO1 (mixture of isomers) shows HER effect (crop damage, herbicide without safener) at minimum 80%?
MET

Would you say C=CC1(C(=O)NC2C=C(C(=O)OCCOC)OC2)CC(c2cc(C)cc(F)c2)=NO1 (stereo not drawn) shows HER effect (crop damage, herbicide without safener) at minimum 80%?
NOT MET

Would you say CCCSCCOC(=O)C1C=CC(NC(=O)C2(C)CC(c3cc(F)cc(F)c3)=NO2)C1 (stereo not drawn) shows HER effect (crop damage, herbicide without safener) at minimum 80%?
NOT MET

Would you say CC1(C(=O)NC2COC(C(=O)OCc3cccc(F)c3)C2)CC(c2cc(F)cc(F)c2)=NO1 (mixture of isomers) shows HER effect (crop damage, herbicide without safener) at minimum 80%?
NOT MET

Would you say CCOC(=O)C1=CCC(NC(=O)C2(C)CC(c3cccc(F)c3)=NO2)C1 (mixture of isomers) shows HER effect (crop damage, herbicide without safener) at minimum 80%?
NOT MET

Would you say C=CC1(C(=O)NC2C=CC(C(=O)O)C2)CC(c2cc(F)cc(F)c2)=NO1 (stereo not drawn) shows HER effect (crop damage, herbicide without safener) at minimum 80%?
NOT MET

Would you say C=CC1(C(=O)NC2COC(C(=O)OC)C2)CC(c2cc(F)cc(F)c2)=NO1 (stereo not drawn) [Example 1.70] shows HER effect (crop damage, herbicide without safener) at minimum 80%?
MET

Would you say COC(=O)C1C=CC(NC(=O)C2(C)CC(c3cc(F)cc(Cl)c3)=NO2)C1 (stereo not drawn) shows HER effect (crop damage, herbicide without safener) at minimum 80%?
NOT MET

Would you say COCCOC(=O)C1C=CC(NC(=O)C2(C(F)(F)F)CC(c3cc(F)cc(C#N)c3)=NO2)C1 (stereo not drawn) shows HER effect (crop damage, herbicide without safener) at minimum 80%?
MET

Would you say COC(=O)C1=CC(NC(=O)C2(C)CC(c3cc(F)cc(F)c3)=NO2)CC1 (stereo not drawn) shows HER effect (crop damage, herbicide without safener) at minimum 80%?
MET

Would you say CC1(C(=O)NC2C=CC(C(=O)OCCSCc3ccccc3)C2)CC(c2cc(F)cc(F)c2)=NO1 (stereo not drawn) shows HER effect (crop damage, herbicide without safener) at minimum 80%?
NOT MET

Would you say COC(=O)C1C=CC(NC(=O)C2(C)CC(c3cc(Cl)cc(C#N)c3)=NO2)C1 (mixture of isomers) shows HER effect (crop damage, herbicide without safener) at minimum 80%?
NOT MET
